- target or test system: UniProt:P21589
- Assay type: biochemical
- settings: 1 mM NaH2PO4 in enzyme buffer, CD73 0.3 nM, AMP 15 uM
pIC50: −log10 of the molar value.
Is pIC50 at least 8? Then Satisfied. If not, Not satisfied.

Examples from the recorded data:
| compound | label value |
| --- | --- |
| O=c1[nH]cc(-c2cc([C@H]3C[C@@H]3c3ccc4cnc(C(F)(F)F)cc4c3)c3nccn3n2)c(=O)[nH]1 (racemic) [Example 138] | Satisfied |
| O=c1[nH]cc(-c2cc(NCCc3ccc(Cl)cc3)c3nccn3n2)c(=O)[nH]1 | Not satisfied |
| O=C(OCC(F)(F)F)O[C@@H]1CN(c2cc(-c3c[nH]c(=O)[nH]c3=O)nn3ccnc23)CC1(F)F | Satisfied |
| O=c1[nH]cc(-c2cc([C@H]3C[C@@H]3c3ccc4cnn(CC(F)F)c4c3)c3nccn3n2)c(=O)[nH]1 [Example 125] | Satisfied |
| C[C@@H]1CN(c2cc(-c3c[nH]c(=O)[nH]c3=O)nn3ccnc23)CC1(F)F | Satisfied |
| O=c1[nH]cc(-c2cc(N3C[C@H](Oc4ncc(C(F)(F)F)cn4)C(F)(F)C3)c3nccn3n2)c(=O)[nH]1 | Satisfied |

--- query ---
Q) Hi, just wondering whether COc1ccc(C2CN(c3cc(-c4c[nH]c(=O)[nH]c4=O)nn4ccnc34)C2)cc1 shows pIC50 of 8 or higher.
A) Not satisfied

---

- target or test system: CD73 (Homo sapiens (Human), UniProt P21589)
- Sequence (P21589 27-574): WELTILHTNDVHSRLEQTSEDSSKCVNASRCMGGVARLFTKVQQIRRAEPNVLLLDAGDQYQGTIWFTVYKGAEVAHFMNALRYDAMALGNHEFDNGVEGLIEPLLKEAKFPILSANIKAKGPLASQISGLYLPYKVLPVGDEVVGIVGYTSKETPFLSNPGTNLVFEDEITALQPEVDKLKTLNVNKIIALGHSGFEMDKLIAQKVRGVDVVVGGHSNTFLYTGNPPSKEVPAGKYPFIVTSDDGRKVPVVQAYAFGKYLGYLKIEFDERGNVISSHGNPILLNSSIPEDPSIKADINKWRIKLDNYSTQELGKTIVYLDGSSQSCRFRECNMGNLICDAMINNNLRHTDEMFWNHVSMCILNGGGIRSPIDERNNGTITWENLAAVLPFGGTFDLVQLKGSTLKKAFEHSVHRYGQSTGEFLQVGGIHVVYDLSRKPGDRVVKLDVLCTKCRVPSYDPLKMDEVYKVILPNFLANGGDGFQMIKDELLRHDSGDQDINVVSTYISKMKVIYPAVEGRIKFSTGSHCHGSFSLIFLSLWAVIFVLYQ
- Type: biochemical
- settings: 1 mM NaH2PO4 in enzyme buffer, CD73 0.3 nM, AMP 15 uM
Kindly note that classification relies on IC50 with these boundaries: class A: < 1 nM; class B: ≥ 1 nM and < 7 nM; class C: ≥ 7 nM

Examples from the recorded data:
| compound | label value |
| --- | --- |
| CC1(O)CCN(c2cc(-c3c[nH]c(=O)[nH]c3=O)nn3ccnc23)C1 (centres unmarked) [Example 243] | class C |
| CC1(C)CN(c2cc(-c3c[nH]c(=O)[nH]c3=O)nn3c(F)c(C4CC4)nc23)CC1(F)F [Example 440] | class C |
| O=c1[nH]cc(-c2cc([C@H]3C[C@@H]3c3ncc(C(F)(F)F)cc3F)c3nccn3n2)c(=O)[nH]1 (racemic) [Example 582] | class B |
| O=c1[nH]cc(-c2cc([C@H]3C[C@@H]3c3ccc(Cl)cn3)c3ncnn3n2)c(=O)[nH]1 [Example 439] | class A |
| CC(=O)N1CCC12CCN(c1cc(-c3c[nH]c(=O)[nH]c3=O)nn3ccnc13)C2 (centres unmarked) [Example 656] | class C |
| O=c1[nH]cc(-c2cc([C@H]3C[C@@H]3c3ccc4ncsc4c3)c3nc(C4CC4)cn3n2)c(=O)[nH]1 (racemic) [Example 143] | class B |

Q) Band for the recorded IC50 of O=c1[nH]cc(-c2cc([C@H]3C[C@@H]3c3cc(C(F)(F)F)c4ncccc4c3)c3nccn3n2)c(=O)[nH]1 [Example 135] ?
A) class B

Q) Band for the recorded IC50 of O=c1[nH]cc(-c2cc([C@H]3C[C@@H]3c3ccc4cnn(CC(F)(F)F)c4c3F)c3nccn3n2)c(=O)[nH]1 [Example 594] ?
A) class A

Q) Band for the recorded IC50 of CC(C)(O)CCNc1cc(-c2c[nH]c(=O)[nH]c2=O)nn2ccnc12 [Example 485] ?
A) class C

Q) Band for the recorded IC50 of O=c1[nH]cc(-c2cc(N3CC(c4ccc(F)cc4)C3)c3nccn3n2)c(=O)[nH]1 [Example 258] ?
A) class C

Q) Band for the recorded IC50 of Cc1cc([C@H]2C[C@@H]2c2cc(-c3c[nH]c(=O)[nH]c3=O)nn3ccnc23)ccc1C#N [Example 560] ?
A) class A

Q) Band for the recorded IC50 of O=c1[nH]cc(-c2cc([C@H]3C[C@@H]3c3ncc(Cl)cc3F)c3nccn3n2)c(=O)[nH]1 [Example 586] ?
A) class A

Q) Band for the recorded IC50 of O=C(NC1CN(c2cc(-c3c[nH]c(=O)[nH]c3=O)nn3ccnc23)CC1(F)F)c1ccc(C(F)(F)F)cc1 (centres unmarked) [Example 210] ?
A) class B

Q) Band for the recorded IC50 of CC(COc1cc(-c2c[nH]c(=O)[nH]c2=O)nn2ccnc12)c1ccccc1 (centres unmarked) [Example 674] ?
A) class C

Q) Band for the recorded IC50 of O=c1[nH]cc(-c2cc([C@H]3C[C@@H]3c3cc4c(cn3)cnn4CC(F)(F)F)c3ncc(Cl)n3n2)c(=O)[nH]1 (racemic) [Example 471] ?
A) class A

Q) Band for the recorded IC50 of CC1(C(F)F)CN(c2cc(-c3c[nH]c(=O)[nH]c3=O)nn3ccnc23)C1 [Example 399] ?
A) class C
